Just for reference, patent US9056874B2 is where these values come from.

ASSAYED_SYSTEM: factor B (Homo sapiens, UniProt P00751)
RUN_DESCRIPTION: factor B inhibition assay of Biological Example 1
Assay type: biochemical
Set-up: CVF-Bb complex prepared from purified cobra venom factor (1 μM), recombinant human complement factor B; made in house; host or cells: drosophila cells (factor B); E. coli (factor D used to form the complex)
RUN_PARAMETERS: IC50 (nM), assay of Biological Example 1 (Table 1)
Sequence (P00751 260-764 limits assumed): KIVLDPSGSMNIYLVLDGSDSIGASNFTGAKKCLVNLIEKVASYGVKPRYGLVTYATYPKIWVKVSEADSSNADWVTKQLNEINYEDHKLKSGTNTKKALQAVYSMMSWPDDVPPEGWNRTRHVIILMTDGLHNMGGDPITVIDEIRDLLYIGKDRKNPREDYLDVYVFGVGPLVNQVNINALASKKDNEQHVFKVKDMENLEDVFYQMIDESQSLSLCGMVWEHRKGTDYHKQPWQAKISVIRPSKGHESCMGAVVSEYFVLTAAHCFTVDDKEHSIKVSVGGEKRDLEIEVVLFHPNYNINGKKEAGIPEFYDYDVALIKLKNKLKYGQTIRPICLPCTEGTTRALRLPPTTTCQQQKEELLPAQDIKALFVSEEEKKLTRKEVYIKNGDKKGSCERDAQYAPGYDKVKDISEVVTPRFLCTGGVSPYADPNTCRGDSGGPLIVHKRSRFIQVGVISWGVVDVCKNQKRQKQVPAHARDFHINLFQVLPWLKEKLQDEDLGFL
Sequence (Q91132 23-649 partner limits assumed): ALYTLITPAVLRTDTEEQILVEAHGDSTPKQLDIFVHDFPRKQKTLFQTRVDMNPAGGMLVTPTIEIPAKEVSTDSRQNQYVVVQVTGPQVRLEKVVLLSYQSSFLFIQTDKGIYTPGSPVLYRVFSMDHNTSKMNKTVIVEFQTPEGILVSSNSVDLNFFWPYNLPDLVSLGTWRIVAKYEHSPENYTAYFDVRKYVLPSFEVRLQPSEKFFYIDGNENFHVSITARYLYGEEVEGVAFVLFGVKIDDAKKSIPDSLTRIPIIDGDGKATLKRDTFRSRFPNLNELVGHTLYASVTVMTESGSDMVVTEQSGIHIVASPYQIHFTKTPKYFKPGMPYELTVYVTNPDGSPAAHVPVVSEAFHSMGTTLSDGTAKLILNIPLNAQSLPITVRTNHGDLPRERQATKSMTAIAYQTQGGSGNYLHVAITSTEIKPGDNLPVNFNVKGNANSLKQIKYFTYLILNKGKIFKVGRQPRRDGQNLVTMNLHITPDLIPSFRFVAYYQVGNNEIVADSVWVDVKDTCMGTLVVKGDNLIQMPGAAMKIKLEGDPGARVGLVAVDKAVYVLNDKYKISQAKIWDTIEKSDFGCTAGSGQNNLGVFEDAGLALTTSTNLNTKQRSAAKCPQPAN
Sequence (Q91132 733-984 partner limits assumed): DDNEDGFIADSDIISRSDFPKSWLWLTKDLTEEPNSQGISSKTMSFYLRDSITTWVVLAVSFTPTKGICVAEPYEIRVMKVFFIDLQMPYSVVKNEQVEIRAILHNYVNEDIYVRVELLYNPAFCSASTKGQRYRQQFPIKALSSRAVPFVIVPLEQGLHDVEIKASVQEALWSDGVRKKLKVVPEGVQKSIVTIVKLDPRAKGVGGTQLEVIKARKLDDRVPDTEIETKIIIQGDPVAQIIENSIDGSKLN
Sequence (Q91132 1264-1642 partner limits assumed): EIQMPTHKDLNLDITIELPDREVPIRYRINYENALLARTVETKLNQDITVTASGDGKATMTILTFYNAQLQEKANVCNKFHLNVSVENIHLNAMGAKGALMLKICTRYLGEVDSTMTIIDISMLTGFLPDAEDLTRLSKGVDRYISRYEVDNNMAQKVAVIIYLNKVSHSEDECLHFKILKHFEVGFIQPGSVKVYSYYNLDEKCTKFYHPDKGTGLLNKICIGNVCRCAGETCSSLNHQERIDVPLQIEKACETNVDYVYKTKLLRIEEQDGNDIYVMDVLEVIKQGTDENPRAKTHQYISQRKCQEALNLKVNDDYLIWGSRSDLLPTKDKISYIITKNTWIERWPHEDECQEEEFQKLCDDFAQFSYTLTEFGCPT
MEASURED_PROPERTY: IC50 (nM)
Dear colleague, please return just the value in nM, with no unit written.

Below are worked cases with known answers.
COC(=O)COC(c1nc2cc(C#N)ccc2[nH]1)(c1c(OC)cc(C)c2[nH]ccc12)C(F)(F)F (racemic)	70
CC(=O)NC(c1nc2cc(C#N)ccc2[nH]1)c1c(C)cc(C)c2[nH]ccc12 (racemic)	1120
CCc1cc(C)c2[nH]ccc2c1C(C)(O)c1nc2cc(C#N)ccc2[nH]1 (single isomer, unassigned; (-)) [77-C b) (−)]	20

Now look at this entry.
Exam item: What is its IC50 for factor B (Homo sapiens, UniProt P00751)? Entry: Cc1cc(C(C)C)c(C(O)c2nc3cc(C#N)ccc3[nH]2)c2cc[nH]c12 (single isomer, unassigned; (-)) [67-D b) (−)]
Marked response: 60

###

ASSAYED_SYSTEM: UniProt P00751
RUN_DESCRIPTION: factor B inhibition assay of Biological Example 1
Type: biochemical
Parameters: CVF-Bb complex prepared from purified cobra venom factor (1 μM), recombinant human complement factor B; made in house; host or cells: drosophila cells (factor B); E. coli (factor D used to form the complex)
RUN_PARAMETERS: IC50 (nM), assay of Biological Example 1 (Table 1)
This section presents compounds with their documented IC50 values.
Dear colleague, please return just the value in nM, with no unit written.

Cc1cc(C(C)C)c(C(C)(O)c2nc3cc(C#N)ccc3[nH]2)c2cc[nH]c12 (single isomer, unassigned; (-)) [79-B b) (−)]	260
Cc1cc(S(C)(=O)=O)c(C(C)(O)c2nc3cc(C#N)ccc3[nH]2)c2cc[nH]c12 (single isomer, unassigned) [11-C b) (tr = 3 min)]	90
COc1cc(C)c2[nH]ccc2c1C(C)(N)c1nc2cc(C#N)ccc2o1 (single isomer, unassigned; (+)) [131-B b) (+)]	140
COc1cc(C)c2[nH]ccc2c1C(O)(c1nc2cc(C#N)ccc2o1)C(F)(F)F (single isomer, unassigned; (+)) [128-B b) (+)]	1990
Cc1cc(S(C)(=O)=O)c(C(N)c2nc3cc(C#N)ccc3[nH]2)c2cc[nH]c12 (single isomer, unassigned) [18-D (−)]	150

Exam item: IC50 lookup needed for Cc1cc(OCC2CC2)c(C(C)(O)c2nc3cc(C#N)ccc3[nH]2)c2cc[nH]c12 (single isomer, unassigned; (+)) [26-G b) (+)] , thanks.
Marked response: 4950

###

ASSAYED_SYSTEM: factor B (Homo sapiens, UniProt P00751)
RUN_DESCRIPTION: assay of Biological Example 2.7
Format: binding
Set-up: made in house; host or cells: drosophila cells
RUN_PARAMETERS: assay of Biological Example 2.7 (Table 2)
Sequence (P00751 26-764): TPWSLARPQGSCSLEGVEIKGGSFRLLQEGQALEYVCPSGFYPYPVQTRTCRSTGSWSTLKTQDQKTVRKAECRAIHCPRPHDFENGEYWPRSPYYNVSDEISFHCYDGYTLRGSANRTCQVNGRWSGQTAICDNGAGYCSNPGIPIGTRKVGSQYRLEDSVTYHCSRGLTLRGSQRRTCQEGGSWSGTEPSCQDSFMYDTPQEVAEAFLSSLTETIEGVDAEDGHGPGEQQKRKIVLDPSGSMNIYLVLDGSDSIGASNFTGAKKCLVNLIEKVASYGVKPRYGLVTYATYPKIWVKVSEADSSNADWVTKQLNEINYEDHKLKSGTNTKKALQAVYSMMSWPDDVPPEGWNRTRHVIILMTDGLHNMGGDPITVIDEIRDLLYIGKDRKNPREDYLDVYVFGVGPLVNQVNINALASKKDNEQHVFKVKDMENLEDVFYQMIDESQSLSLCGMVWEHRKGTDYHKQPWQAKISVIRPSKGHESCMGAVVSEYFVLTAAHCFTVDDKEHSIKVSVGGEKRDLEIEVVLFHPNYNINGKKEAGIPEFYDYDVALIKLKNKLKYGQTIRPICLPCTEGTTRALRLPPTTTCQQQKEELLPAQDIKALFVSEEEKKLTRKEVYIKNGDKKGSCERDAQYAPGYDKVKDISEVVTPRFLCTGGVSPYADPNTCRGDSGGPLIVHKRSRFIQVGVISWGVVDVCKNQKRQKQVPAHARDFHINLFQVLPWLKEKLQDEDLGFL
pIC50: −log10 of the molar value.
Classification field: enter met for pIC50 values not below 7, not met for values below it.

Would you please look over these solved cases?
COc1cc(C)c2[nH]ccc2c1C(C)(CCC(=O)O)c1nc2cc(C#N)ccc2o1 (racemic)	not met
COc1cc(C)c2[nH]ccc2c1C(C)(OC)c1cc2ccc(C#N)cc2o1 (centres unmarked)	not met
COc1cc(C)c2[nH]ccc2c1C(C)(OC)c1nc2cc(C#N)ccc2[nH]1 (single isomer, unassigned; (-)) [27-B b) (−)]	met
COc1cc(C)c2[nH]ccc2c1C(C)(Cc1nn[nH]n1)c1nc2cc(C#N)ccc2o1 (racemic)	not met
Cc1cc(C)c2[nH]ccc2c1C(O)c1cc2cc(C#N)ccc2[nH]1 (centres unmarked)	not met

Exam item: # bool: pIC50 of COc1cc(C)c2[nH]ccc2c1C(C)(OC)c1cc2cc(C#N)ccc2o1 (centres unmarked) >= 7
Marked response: not met

Exam item: Entry to check: COc1cc(C)c2[nH]ccc2c1C(CCCC(=O)O)c1nc2cc(C#N)ccc2[nH]1 (racemic)
Marked response: met

Exam item: Entry to check: CCc1cc(C)c2[nH]ccc2c1C(C)(N)c1nc2cc(C#N)ccc2o1 (single isomer, unassigned) [137-F b) (tr = 4.9 min)]
Marked response: met

Exam item: Entry to check: COc1cc(C)c2[nH]ccc2c1C(NCCN)(c1nc2cc(C#N)ccc2[nH]1)C(F)(F)F (racemic) [38-D b) (−)]
Marked response: not met

Exam item: Entry to check: COc1cc(C)c2[nH]ccc2c1C(C)(O)c1cc2ccc(C#N)cc2[nH]1 (centres unmarked)
Marked response: met

Exam item: Entry to check: [2H]C([2H])([2H])OC(C)(c1nc2cc(C#N)ccc2[nH]1)c1c(OC)cc(C)c2[nH]ccc12 (single isomer, unassigned; (-)) [137-I b) (−)]
Marked response: met

###

ASSAYED_SYSTEM: UniProtKB P00751
RUN_DESCRIPTION: factor B inhibition assay of Biological Example 1
Format: biochemical
Design: CVF-Bb complex prepared from purified cobra venom factor (1 μM), recombinant human complement factor B; made in house; host or cells: drosophila cells (factor B); E. coli (factor D used to form the complex)
RUN_PARAMETERS: IC50 (nM), assay of Biological Example 1 (Table 1)
# if measured IC50 < 200 nM: satisfied  # else: not satisfied

Would you please look over these solved cases?
Cc1cc(C)c2[nH]cc(-c3cnn(C)c3)c2c1C(O)c1nc2cc(C#N)ccc2[nH]1 (single isomer, unassigned) [119 b) (tr = 1.54 min)]	satisfied
CNC(C)(c1nc2cc(C#N)ccc2[nH]1)c1c(OC)cc(C)c2[nH]ccc12 (single isomer, unassigned; (-)) [42-D b) (−)]	satisfied
CCC(O)(c1nc2cc(C#N)ccc2[nH]1)c1c(C)cc(C)c2[nH]ccc12 (stereo not shown)	satisfied
CCc1cc(C)c2[nH]cc(-c3ccccc3)c2c1C(O)c1nc2cc(C#N)ccc2[nH]1 (racemic)	satisfied
COc1cc(C)c2[nH]ccc2c1C(OCC(=O)O)(c1nc2cc(C#N)ccc2[nH]1)C(F)(F)F (single isomer, unassigned; (+)) [35-C (+)]	not satisfied

Continue with the molecule presented below.
Exam item: Hello, I'm reviewing records and need to know if IC50 of CCc1cc(C)c2[nH]ccc2c1C(C)(O)c1nc2cc(C#N)ccc2[nH]1 (single isomer, unassigned; (+)) [77-C b) (+)] is below 200 nM. Could you check?
Marked response: satisfied

###

This section presents compounds with their documented IC50 values.
ASSAYED_SYSTEM: factor B (Homo sapiens, UniProt P00751)
RUN_DESCRIPTION: factor B inhibition assay of Biological Example 1
Assay type: biochemical
Set-up: CVF-Bb complex prepared from purified cobra venom factor (1 μM), recombinant human complement factor B; made in house; host or cells: drosophila cells (factor B); E. coli (factor D used to form the complex)
RUN_PARAMETERS: IC50 (nM), assay of Biological Example 1 (Table 1)
Dear colleague, please return just the value in nM, with no unit written.

Exam item: IC50 lookup needed for CCOc1cc(C)c2[nH]ccc2c1C(O)c1nc2cc(C#N)ccc2[nH]1 (single isomer, unassigned; (-)) [24-C b) (−)] , thanks.
Marked response: 600

Exam item: Entry to check: Cc1cc(S(C)(=O)=O)c(C(C)(N)c2nc3cc(C#N)ccc3[nH]2)c2cc[nH]c12 (single isomer, unassigned; (-)) [13-E b) (−)]
Marked response: 1410

Exam item: Entry to check: Cc1cc(C(C)C)c(C(N)c2nc3cc(C#N)ccc3[nH]2)c2cc[nH]c12 (single isomer, unassigned) [97 b) (tr = 10.5 min)]
Marked response: 3810

###

ASSAYED_SYSTEM: factor B (Homo sapiens)
RUN_DESCRIPTION: factor B inhibition assay of Biological Example 1
Assay type: biochemical
Design: CVF-Bb complex prepared from purified cobra venom factor (1 μM), recombinant human complement factor B; made in house; host or cells: drosophila cells (factor B); E. coli (factor D used to form the complex)
RUN_PARAMETERS: IC50 (nM), assay of Biological Example 1 (Table 1)
# if measured IC50 < 500 nM: t  # else: f

Would you please look over these solved cases?
Cc1cc(Cl)c(C(O)c2nc3cc(C#N)ccc3[nH]2)c2cc[nH]c12 (single isomer, unassigned; (-)) [67-E b) (−)]	f
COc1cc(C)c2[nH]ccc2c1C(O)c1cc2cc(C#N)ccc2o1 (racemic)	t
Cc1cc(CO)c(C(O)c2nc3cc(C#N)ccc3[nH]2)c2cc[nH]c12 (single isomer, unassigned; (+)) [65-D b) (+)]	f

Continue with the compound presented below.
Exam item: Hello, I'm reviewing records and need to know if IC50 of Cc1cc(OC(F)F)c(C(C)(O)c2nc3cc(C#N)ccc3[nH]2)c2cc[nH]c12 (racemic) [6-B b) (+)] is below 500 nM. Could you check?
Marked response: t
